Exercise: for every item that follows, state its recorded Survivors/Injected mice; i.c.v.; AahII:Nb 1:4; 3 LD50/mouse; 72 ng Nb/mouse.
Molecular target: T1, AahII toxin of Androctonus australis hector (Androctonus australis hector, UniProt P01484 20-83)
T1 sequence: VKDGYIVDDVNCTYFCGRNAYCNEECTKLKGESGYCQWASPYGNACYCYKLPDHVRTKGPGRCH
Test: cell-based or functional assay

Briefly, Survivors/Injected mice; i.c.v.; AahII:Nb 1:4; 3 LD50/mouse; 72 ng Nb/mouse measured for NbAahII05 (VHH, also called cluster G) VHH: QVQLQESGGGSVQAGGSLRLSCAASGYTCTKFNMGWYRQAPGKQREFVASIRRDSTIYYGDSVKGRFTISQDNAKNMVYLQMTSLKPEDSAMYYCSTRCLTSSVPYWGQGTQVTVSS : 4 survivors of 4 mice

Briefly, Survivors/Injected mice; i.c.v.; AahII:Nb 1:4; 3 LD50/mouse; 72 ng Nb/mouse measured for NbAahII19 (VHH, Purified from E. coli periplasm with His6; also called cluster I) VHH: QVQLQESGGGLVQPGGSLRLSCAASGFSFNIYAMSWVRQAPGKQFEWVSGIHPDGRSTYYTDSVKGRFTISRDNAKNTLYLQLDSLKTEDTAMYYCAKGVLTKYVGSARGQGTQVTVSS : 4 survivors of 4 mice

Briefly, Survivors/Injected mice; i.c.v.; AahII:Nb 1:4; 3 LD50/mouse; 72 ng Nb/mouse measured for NbAahII20 (VHH, Purified from E. coli periplasm with His6; also called NbAahIKO (I); cluster I) VHH: QVQLQESGGGLVQPGGSLRLSCTASGFDFSRYVMSWVRQAPGKDFEWISGIMPLSSAGTTYADAVKGRFTISRDNAKNTLYLQLNNLKTEDTAIYYCAKGVYTTYIGGARGQGTQVTVSS : 2 survivors of 4 mice

Briefly, Survivors/Injected mice; i.c.v.; AahII:Nb 1:4; 3 LD50/mouse; 72 ng Nb/mouse measured for NbAahII10 (VHH, also called NbAahIIlO; NbAahII lO) VHH: QVQLVESGGGSVQAGGSLKLSCAASGYFYSSNYCLGWFRQAPGKEREGVAQINIAPGRIYYADSVKGRFTISRDNAKNTVYLQMDSLKPEDTAIYYCASTAGNMYYGLRGPADFDYWGQGTQVTVSS : 4 survivors of 4 mice

Briefly, Survivors/Injected mice; i.c.v.; AahII:Nb 1:4; 3 LD50/mouse; 72 ng Nb/mouse measured for NbAahII12 (VHH, Purified from E. coli periplasm with His6; also called cluster I) VHH: QVQLVESGGGLVQPGGSLRLSCAASGFSFNIYAMSWVRQAPGKQFEWVSGIHPNGRSTYYTDSVKGRFTISRDNAKNTLYLQLDSLKTEDTAMYYCAKGVLTKYVGGARGQGTQVTVSS : 2 survivors of 4 mice

Briefly, Survivors/Injected mice; i.c.v.; AahII:Nb 1:4; 3 LD50/mouse; 72 ng Nb/mouse measured for NbAahII18 (VHH, also called NbAahlllδ; NbAahll l δ) VHH: QVQLQESGGGSVQAGGSLRLSCAASGDSYSNYYMAWFRQAPGKEREGVAHINRSGRITLYADSVKGRFTMSRDNAKNTVYLQMNSLRPEDTAIYYCAAGVRTHMPPLASYGFDYWGQGTQVTVSS : 2 survivors of 4 mice
